Substrate: ICOS (Homo sapiens (Human)) (UniProt Q9Y6W8)
Sequence (Q9Y6W8 21-199 limits assumed): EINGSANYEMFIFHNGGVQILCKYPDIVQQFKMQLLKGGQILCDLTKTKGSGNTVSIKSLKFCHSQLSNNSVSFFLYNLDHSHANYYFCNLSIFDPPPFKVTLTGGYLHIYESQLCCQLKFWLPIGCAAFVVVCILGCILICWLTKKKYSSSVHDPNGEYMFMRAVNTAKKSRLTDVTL
test.method.notes: flow cytometry, transfected cells
Listing of recorded MFI by entry.
Return type: number; implicit unit MFI.

{"columns": ["binder", "unit.string", "data.value"],
 "data": [
  ["ICOSL ECD-Fc N84Q/N119Q/N207Q (Fc fusion) DTQEKEVRAMVGSDVELSCACPEGSRFDLNDVYVYWQTSESKTVVTYHIPQNSSLENVDSRYRNRALMSPAGMLRGDFSLRLFQVTPQDEQKFHCLVLSQSLGFQEVLSVEVTLHVAAQFSVPVVSAPHSPSQDELTFTCTSINGYPRPNVYWINKTDNSLLDQALQNDTVFLNMRGLYDVVSVLRIARTPSVNIGCCIENVLLQQQLTVGSQTGNDIGERDKITENPVSTGEKNAAT", "MFI", 21400]
]}

Next, consider the following binder.
Reported MFI ( ICOSL-Fc N52R/N57Y/Q100R (Fc fusion) DTQEKEVRAMVGSDVELSCACPEGSRFDLNDVYVYWQTSESKTVVTYHIPQRSSLEYVDSRYRNRALMSPAGMLRGDFSLRLFNVTPQDEQKFHCLVLSRSLGFQEVLSVEVTLHVAANFSVPVVSAPHSPSQDELTFTCTSINGYPRPNVYWINKTDNSLLDQALQNDTVFLNMRGLYDVVSVLRIARTPSVNIGCCIENVLLQQNLTVGSQTGNDIGERDKITENPVSTGEKNAAT ) = 6100
